Each record here notes measured MIC.
System: Ps. aeruginosa AK 109
Assay: in vitro antibacterial activity, agar plate dilution method (MIC)
Format: cell-based, Pseudomonas aeruginosa
Conditions: Pseudomonas aeruginosa, AK109, 16 h, Ps. aeruginosa AK 109; 10^6 CFU/ml; read-out: Minimum Inhibitory Concentration (MIC)
outcome_measure: MIC (µg/mL)

CO/N=C(\C(=O)N[C@@H]1C(=O)N2C(C(=O)O)=C(CSc3nnc(-c4ccc(O)cc4)s3)CS[C@H]12)c1csc(N)n1 [compound 7, reference compound] ... 25
Nc1nc(/C(=N/OCC(=O)O)C(=O)N[C@@H]2C(=O)N3C(C(=O)O)=C(CSc4nnc(-c5ccc(O)c(O)c5)o4)CS[C@H]23)cs1 ... 0.2
CO/N=C(\C(=O)N[C@@H]1C(=O)N2C(C(=O)O)=C(CSc3nc(-c4ccccc4)c(CC(=O)O)s3)CS[C@H]12)c1csc(N)n1 [compound 15, reference compound] ... 100
C#CCO/N=C(\C(=O)N[C@@H]1C(=O)N2C(C(=O)O)=C(CSc3nnc(-c4ccc(O)c(O)c4)o3)CS[C@H]12)c1csc(N)n1 ... 0.2
CC(C)O/N=C(\C(=O)N[C@@H]1C(=O)N2C(C(=O)O)=C(CSc3nnc(-c4ccc(O)c(O)c4)o3)CS[C@H]12)c1csc(N)n1 ... 0.2
CC(C)(O/N=C(\C(=O)N[C@@H]1C(=O)N2C(C(=O)O)=C(CSc3nc(-c4ccccc4)c(CC(=O)O)s3)CS[C@H]12)c1csc(N)n1)C(=O)O [compound 16, reference compound] ... 50
CC(C)(O/N=C(\C(=O)N[C@@H]1C(=O)N2C(C(=O)O)=C(CSc3nc(-c4ccc(O)cc4)cs3)CS[C@H]12)c1csc(N)n1)C(=O)O [compound 12, reference compound] ... 25
CO/N=C(\C(=O)N[C@@H]1C(=O)N2C(C(=O)O)=C(CSc3nc(-c4ccccc4)cs3)CS[C@H]12)c1csc(N)n1 [compound 9, reference compound] ... 25
CO/N=C(\C(=O)N[C@@H]1C(=O)N2C(C(=O)O)=C(COC(C)=O)CS[C@H]12)c1csc(N)n1 [cefotaxime, reference compound] ... 12.5
Nc1nc(/C(=N/OC(C(=O)O)c2ccccc2)C(=O)N[C@@H]2C(=O)N3C(C(=O)O)=C(CSc4nnc(-c5ccc(O)c(O)c5)o4)CS[C@H]23)cs1 (single isomer, unassigned) ... 0.1
C#CCO/N=C(\C(=O)N[C@@H]1C(=O)N2C(C(=O)O)=C(CSc3nnc(-c4ccc(O)c(O)c4)s3)CS[C@H]12)c1csc(N)n1 ... 0.2
